Assay: OCT transport across Caco-2 cell monolayers
Assay type: in vitro ADME, human
Settings: Caco-2, 21 days, Transwell, 10 μM OCT with or without 0.5% SN, PBS pH 7.4, 120 min, 37 °C, LC-MS/MS, triplicate, mean ± s.d.
ASSAY METRIC: Papp A→B (×10⁻⁶ cm/s)
Your answer is read as ×10⁻⁶ cm/s, so omit the unit and give the number.

Which Papp A→B reading was recorded for the compound C[C@@H](O)[C@@H]1NC(=O)[C@H](CCCCN)NC(=O)[C@@H](Cc2c[nH]c3ccccc23)NC(=O)[C@H](Cc2ccccc2)NC(=O)[C@@H](NC(=O)[C@H](N)Cc2ccccc2)CSSC[C@@H](C(=O)N[C@H](CO)[C@@H](C)O)NC1=O [OCT, Octreotide] ? 2.67
